Recorded values, source patent US20240400564A1.

Molecular target: human Menin and N-terminal portion of human MLL (amino acids 4-43) (Homo sapiens)
Sequence (O00255 1-610): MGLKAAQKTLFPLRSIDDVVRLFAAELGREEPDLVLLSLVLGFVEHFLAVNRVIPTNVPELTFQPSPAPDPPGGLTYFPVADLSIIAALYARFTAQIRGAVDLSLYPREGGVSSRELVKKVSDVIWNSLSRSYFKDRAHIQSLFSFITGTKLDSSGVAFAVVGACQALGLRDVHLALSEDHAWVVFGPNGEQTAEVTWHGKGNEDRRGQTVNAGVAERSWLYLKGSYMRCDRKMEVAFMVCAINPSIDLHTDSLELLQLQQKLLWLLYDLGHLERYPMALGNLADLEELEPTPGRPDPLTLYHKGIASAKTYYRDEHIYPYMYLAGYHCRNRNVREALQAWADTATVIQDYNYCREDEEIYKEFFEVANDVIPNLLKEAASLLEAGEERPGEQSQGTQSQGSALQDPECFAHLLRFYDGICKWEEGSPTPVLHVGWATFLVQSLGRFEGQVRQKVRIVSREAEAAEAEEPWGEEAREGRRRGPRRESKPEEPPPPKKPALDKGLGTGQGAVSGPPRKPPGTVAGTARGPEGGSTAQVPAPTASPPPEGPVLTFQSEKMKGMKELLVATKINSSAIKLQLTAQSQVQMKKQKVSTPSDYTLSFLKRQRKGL
pIC50: −log10 of the molar value.
Reported values of pIC50 for individual entries

> print(dat)
                                test.smiles                             tested.system  meas.value
1  CC(C)S(=O)(=O)N[C@@H]1CC[C@@H](CN2CCC3(CC2)CN(c2ncncc2Oc2ccc(F)cc2C(=O)N2[C@H](C)COC[C@@H]2C)C3)OC1  human Menin and N-terminal portion of human MLL (amino acids 4-43) (Homo sapiens)      > 7.00
2  CCN(C(=O)c1cc(F)ccc1Oc1cncnc1N1CC2(CCN(C[C@@H]3CC[C@@H](NS(=O)(=O)CCOC)CO3)CC2)C1)C(C)C  human Menin and N-terminal portion of human MLL (amino acids 4-43) (Homo sapiens)      > 7.00

Now look at this one.
Kindly note the recorded pIC50 for CCN(C(=O)c1cc(F)ccc1Oc1cncnc1N1CC2(CCN(C[C@@H]3CC[C@@H](NS(=O)(=O)C4CCC4)CO3)CC2)C1)C(C)C , which is > 7.00
